# Tested on: human dermal fibroblasts (HF)
# EXPERIMENTAL_DETAILS: Cytotoxicity on normal cells (sulforhodamine B), HF
# Type: cell-based
# CONDITION_CONTEXT: 48 h
REPORTED_PROPERTY: CC50 (µM)

MOL: CCCN(CCC)c1cc(N)nc(Nc2cccc(Cl)c2)n1
READING: 68

---

molecules and their reported log10 of EC50
# System: tongue squamous cell carcinoma CAL27
# EXPERIMENTAL_DETAILS: In vitro proliferation assay (sulforhodamine B), CAL27
# Type: cell-based, human
# CONDITION_CONTEXT: Homo sapiens, CAL-27, 48 h, 48 h
Structures can show the parent of a compound that is named as a salt.
REPORTED_PROPERTY: log10 of EC50 (log10 of the value in µM)

MOLECULE: CCCN(CCC)c1cc(N)nc(N(Cc2ccc(F)cc2)c2cccc(Cl)c2)n1
REPORTED_PROPERTY: log10 of EC50
READING: 1.77
--
MOLECULE: COc1cccc(Nc2cc(N)nc(Nc3cccc(OC)c3)n2)c1
REPORTED_PROPERTY: log10 of EC50
READING: 1.02
--
MOLECULE: CCN(CC)CCCNc1cc(N)nc(Nc2cccc(OC)c2)n1
REPORTED_PROPERTY: log10 of EC50
READING: 1.76
--
MOLECULE: CCN(CC)CCCNc1cc(N)nc(Nc2cccc([N+](=O)[O-])c2)n1
REPORTED_PROPERTY: log10 of EC50
READING: 1.55
--
MOLECULE: CCN(CC)CCCNc1cc(N)nc(N(Cc2ccc(F)cc2)c2cccc([N+](=O)[O-])c2)n1
REPORTED_PROPERTY: log10 of EC50
READING: 1.01
--
MOLECULE: CCN(CC)CCCNc1cc(N)nc(N(Cc2ccc(F)cc2)c2cccc(Cl)c2)n1
REPORTED_PROPERTY: log10 of EC50
READING: 0.63
--
MOLECULE: CCCN(CCC)c1cc(N)nc(Nc2ccc(Cl)cc2F)n1
REPORTED_PROPERTY: log10 of EC50
READING: 1.74
--
MOLECULE: CCCN(CCC)c1cc(N)nc(N(Cc2ccc(F)cc2)c2ccc(Cl)cc2F)n1
REPORTED_PROPERTY: log10 of EC50
READING: 1.65
--
MOLECULE: CCCN(CCC)c1cc(N)nc(Nc2cccc(Cl)c2)n1 [Compound 1e-HCl]
REPORTED_PROPERTY: log10 of EC50
READING: 1.48
